Target: UniProt:O70577
Sequence (O70577 whole entry): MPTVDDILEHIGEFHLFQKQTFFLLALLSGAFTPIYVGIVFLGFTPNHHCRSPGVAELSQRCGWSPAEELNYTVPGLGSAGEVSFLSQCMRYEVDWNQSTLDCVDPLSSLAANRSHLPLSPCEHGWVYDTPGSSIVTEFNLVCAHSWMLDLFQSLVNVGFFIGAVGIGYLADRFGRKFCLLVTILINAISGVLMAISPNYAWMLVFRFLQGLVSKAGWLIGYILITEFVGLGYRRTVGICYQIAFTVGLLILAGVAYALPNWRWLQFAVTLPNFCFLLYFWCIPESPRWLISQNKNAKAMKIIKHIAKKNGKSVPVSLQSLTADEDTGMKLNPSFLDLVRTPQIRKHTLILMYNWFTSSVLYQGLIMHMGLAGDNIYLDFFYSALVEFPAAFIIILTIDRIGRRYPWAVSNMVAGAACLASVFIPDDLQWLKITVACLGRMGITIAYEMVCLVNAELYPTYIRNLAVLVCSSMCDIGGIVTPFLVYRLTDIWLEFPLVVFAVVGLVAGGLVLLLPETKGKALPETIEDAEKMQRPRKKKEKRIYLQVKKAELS
Assay: Inhibition of metformin accumulation in HEK-293 cells stably expressing mOct2
QUANTITY_NAME: Ki (µM)
The reply should be a number in µM, with the unit left off.

Sure, the documented Ki for Cc1nccn1CC1CCc2c(c3ccccc3n2C)C1=O (stereo not shown) is 3.5

====

Experiment: in vivo
Settings: mouse, AUC0–120min of metformin
QUANTITY_NAME: AUC(0-t)
Write the numeric value and append its unit.

Sure, the documented AUC(0-t) for "CN(C)C(=N)N=C(N)N" is 2030 ng·h/mL

====

Molecular target: UniProt:Q8K0H1
Sequence (Q8K0H1 whole entry): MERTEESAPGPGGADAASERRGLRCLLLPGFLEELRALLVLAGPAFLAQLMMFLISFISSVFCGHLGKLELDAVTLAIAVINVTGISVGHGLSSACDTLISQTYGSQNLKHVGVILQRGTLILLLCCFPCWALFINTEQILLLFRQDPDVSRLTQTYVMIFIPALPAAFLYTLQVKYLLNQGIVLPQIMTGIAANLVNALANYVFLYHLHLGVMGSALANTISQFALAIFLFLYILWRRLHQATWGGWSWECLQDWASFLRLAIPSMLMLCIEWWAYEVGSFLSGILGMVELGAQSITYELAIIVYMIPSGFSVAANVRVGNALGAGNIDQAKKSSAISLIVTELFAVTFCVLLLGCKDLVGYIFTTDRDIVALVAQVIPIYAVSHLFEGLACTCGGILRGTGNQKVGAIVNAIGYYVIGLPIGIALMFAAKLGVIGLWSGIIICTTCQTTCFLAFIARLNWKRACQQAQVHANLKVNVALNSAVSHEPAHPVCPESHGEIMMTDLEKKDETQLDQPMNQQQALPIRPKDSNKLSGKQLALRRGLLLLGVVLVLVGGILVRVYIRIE
Assay: Inhibition of metformin accumulation in HEK-293 cells stably expressing mMate1
QUANTITY_NAME: Ki (nM)
The reply should be a number in nM, with the unit left off.

Sure, the documented Ki for Cc1nccn1CC1CCc2c(c3ccccc3n2C)C1=O (stereo not shown) is 70

====

Assay type: in vivo, mice
Details: mouse, kidney, intraperitoneal, 7.5 mg/kg, Metformin accumulation in the kidney, Mate1−/− mice, saline (Fig. 4A)
QUANTITY_NAME: concentration at 30 min (ng/g)
The reply should be a number in ng/g, with the unit left off.

Sure, the documented concentration at 30 min for "CN(C)C(=N)N=C(N)N" is 917
